This collection of values is drawn from paper PMC8037182.

I'd appreciate it if you could supply OD490 Mean values for the items below.
# Tested on: T24 cell line
# procedure details: Cytotoxicity MTS assay, T24 cell line;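 also: blank control wells received 0.025% DMSO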
# Type: cell-based
# reported conditions: T24 cell line, 100μM, third assay
Give the figure only, with no unit attached.

Exercise: Given CCOC(=O)c1[nH]c(C2NC(=O)NC(C)=C2C(=O)Nc2ccccc2C)c(C(=O)OC)c1C (stereo not shown) [D4] , respond with its OD490 Mean.
Key: 1.2819

Exercise: Given the molecule CCOC(=O)c1c(C2NC(=O)NC(C)=C2C(=O)Nc2ccccc2OC)[nH]c(C(=O)OC)c1C (stereo not shown) [D1] , write its reported OD490 Mean.
Key: 1.3345

Exercise: Fill in reported OD490 Mean for this entry: CCOC(=O)C1=C(C)NC(=S)NC1c1cccc(O)c1 (stereo not shown) [Monastrol, monastrol, reference compound]
Key: 1.3785

Exercise: Please give the documented OD490 Mean of CCOc1ccccc1C1NC(=S)NC(C)=C1C(=O)Nc1ccc(Cl)cc1 (stereo not shown) [C9]
Key: 1.0526

----------
# Tested on: Caco-2 cell line
# procedure details: Cytotoxicity MTS assay, Caco-2 cell line
# Format: cell-based
# reported conditions: 1μM; first assay; Caco-2 cell line
We use 0.6 as the dividing line for OD490 Well 3: on or above the line is satisfied, below is not satisfied.

Exercise: Is OD490 Well 3 at least 0.6? Consider CCOc1ccccc1C1NC(=S)NC(C)=C1C(=O)Nc1ccc(Cl)cc1 (centres unmarked)
Key: satisfied

Exercise: Record CCOC(=O)c1c(C2NC(=O)NC(C)=C2C(=O)Nc2ccccc2C)[nH]c(C(=O)OC)c1C (centres unmarked) [D2] ; criterion: OD490 Well 3 no lower than 0.6. Met?
Key: satisfied

Exercise: Quick check: does CCOC(=O)c1[nH]c(C2NC(=S)NC(C)=C2C(=O)OC)c(C(=O)OCC)c1C (centres unmarked) have OD490 Well 3 greater than or equal to 0.6?
Key: not satisfied

Exercise: Reported OD490 Well 3 reaches at least 0.6 for CCOC(=O)c1[nH]c(C2NC(=O)NC(C)=C2C(=O)Nc2ccccc2C)c(C(=O)OC)c1C (centres unmarked) ?
Key: not satisfied

----------
# Tested on: Hela cell line
# procedure details: Cytotoxicity MTS assay, Hela cell line;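 also: blank control wells received 0.025% DMSO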
# Format: cell-based
# reported conditions: Hela cell line, MTS, 0.5μM, second assay
Exercise: for every item that follows, state its recorded OD490 value, Well 2.
# respond with the number and nothing more

Exercise: Please give the documented OD490 value, Well 2 of CCOC(=O)c1c(C2NC(=O)NC(C)=C2C(=O)Nc2ccccc2C)[nH]c(C(=O)OC)c1C (centres unmarked) [D2]
Key: 2.6687

Exercise: Identify the reported OD490 value, Well 2 for the following entry. CCOC(=O)c1c(C2NC(=O)NC(C)=C2C(=O)Nc2ccccc2)[nH]c(C(=O)OC)c1C (centres unmarked) [D10]
Key: 2.4789

Exercise: Query OD490 value, Well 2 for CCOC(=O)c1c(C2NC(=O)NC(C)=C2C(=O)Nc2ccccc2OC)[nH]c(C(=O)OC)c1C (centres unmarked) [D1]
Key: 2.6010

Exercise: Provide only the value of recorded OD490 value, Well 2 for CCOC(=O)c1[nH]c(C2NC(=O)NC(C)=C2C(=O)Nc2ccc(Cl)cc2)c(C(=O)OCC)c1C (centres unmarked) [D7]
Key: 2.6974

Exercise: Name the recorded OD490 value, Well 2 of the compound listed here: CCOC(=O)c1[nH]c(C2NC(=O)NC(C)=C2C(=O)Nc2ccccc2C)c(C(=O)OC)c1C (centres unmarked) [D4]
Key: 2.2036

Exercise: Look up and report measured OD490 value, Well 2 for this entry: CCOC(=O)c1[nH]c(C2NC(=S)NC(C)=C2C(=O)OC)c(C(=O)OCC)c1C (centres unmarked) [D12]
Key: 2.2547

Exercise: Write down OD490 value, Well 2 measured for item CCOC(=O)c1[nH]c(C2NC(=O)NC(C)=C2C(=O)Nc2ccccc2OC)c(C(=O)OC)c1C (centres unmarked) [D3]
Key: 2.9230

Exercise: Name the recorded OD490 value, Well 2 of the compound listed here: CCOc1ccccc1C1NC(=S)NC(C)=C1C(=O)Nc1ccc(Cl)cc1 (centres unmarked) [C9]
Key: 2.5102

----------
# Tested on: L929 cell line
# procedure details: Cytotoxicity MTS assay, L929 cell line
# Type: cell-based
# reported conditions: L929 cell line, 25μM, third assay
measured property: OD490 values, Well 3
Give the figure by itself; no unit, no explanation.

Exercise: Fill in reported OD490 values, Well 3 for this entry: COC(=O)c1[nH]c(C2NC(=S)NC(C)=C2C(=O)c2ccccc2)c(C(=O)OC)c1C (stereo not drawn)
Key: 1.6222

Exercise: Tell me measured OD490 values, Well 3 for CCOC(=O)c1[nH]c(C2NC(=O)NC(C)=C2C(=O)Nc2ccccc2C)c(C(=O)OC)c1C (stereo not drawn) please.
Key: 1.2365

Exercise: Answer with the recorded OD490 values, Well 3 of CCOC(=O)c1[nH]c(C2NC(=S)NC(C)=C2C(=O)OC)c(C(=O)OCC)c1C (stereo not drawn) only.
Key: 1.5674

Exercise: Identify OD490 values, Well 3 associated with the compound CCOc1ccccc1C1NC(=S)NC(C)=C1C(=O)Nc1ccc(Cl)cc1 (stereo not drawn)
Key: 1.3587

Exercise: Using known records, supply OD490 values, Well 3 for CCOC(=O)c1[nH]c(C2NC(=O)NC(C)=C2C(=O)Nc2ccc(Cl)cc2)c(C(=O)OCC)c1C (stereo not drawn)
Key: 1.3201

Exercise: Answer with the recorded OD490 values, Well 3 of CCOC(=O)c1c(C2NC(=O)NC(C)=C2C(=O)Nc2ccccc2OC)[nH]c(C(=O)OC)c1C (stereo not drawn) [D1] only.
Key: 1.4521

----------
Provide the recorded OD490 values, Mean for the entries that follow.
# Test system: L929 cell line
# procedure details: Cytotoxicity MTS assay, L929 cell line
# Assay type: cell-based
# reported conditions: L929 cell line, 100μM, third assay
Provide a numeric answer; units are not to be included.

Exercise: Please report OD490 values, Mean for the following molecule: CCOC(=O)C1=C(C)NC(=S)NC1c1cccc(O)c1 (stereo not shown) [Monastrol, monastrol, reference compound]
Key: 1.4401

Exercise: Return reported OD490 values, Mean. Input molecule: COC(=O)c1[nH]c(C2NC(=S)NC(C)=C2C(=O)c2ccccc2)c(C(=O)OC)c1C (stereo not shown) [D14]
Key: 1.3039

Exercise: Tell me measured OD490 values, Mean for CCOC(=O)c1[nH]c(C2NC(=O)NC(C)=C2C(=O)Nc2ccccc2C)c(C(=O)OC)c1C (stereo not shown) [D4] please.
Key: 0.8397

Exercise: Dear colleague, please send me the reported OD490 values, Mean for CCOC(=O)c1[nH]c(C2NC(=O)NC(C)=C2C(=O)Nc2ccc(Cl)cc2)c(C(=O)OCC)c1C (stereo not shown) [D7] when you can.
Key: 0.8420

Exercise: Note OD490 values, Mean for the molecule shown: CCOC(=O)c1c(C2NC(=O)NC(C)=C2C(=O)Nc2ccccc2OC)[nH]c(C(=O)OC)c1C (stereo not shown) [D1]
Key: 1.3217

Exercise: Indicate its recorded OD490 values, Mean; the molecule in question is CCOC(=O)c1[nH]c(C2NC(=S)NC(C)=C2C(=O)OC)c(C(=O)OCC)c1C (stereo not shown) [D12]
Key: 1.3052

Exercise: Indicate the recorded OD490 values, Mean value for this molecule: CCOc1ccccc1C1NC(=S)NC(C)=C1C(=O)Nc1ccc(Cl)cc1 (stereo not shown) [C9]
Key: 0.7698

----------
I'd be grateful if you could share measured pIC50 for these entries.
# test system: Eg5 motor protein (Homo sapiens, UniProt P52732)
# Construct: Eg5 motor domain (amino acids 1-368) was cloned into pET22b; His-tag (C)
# Sequence (P52732 1-368): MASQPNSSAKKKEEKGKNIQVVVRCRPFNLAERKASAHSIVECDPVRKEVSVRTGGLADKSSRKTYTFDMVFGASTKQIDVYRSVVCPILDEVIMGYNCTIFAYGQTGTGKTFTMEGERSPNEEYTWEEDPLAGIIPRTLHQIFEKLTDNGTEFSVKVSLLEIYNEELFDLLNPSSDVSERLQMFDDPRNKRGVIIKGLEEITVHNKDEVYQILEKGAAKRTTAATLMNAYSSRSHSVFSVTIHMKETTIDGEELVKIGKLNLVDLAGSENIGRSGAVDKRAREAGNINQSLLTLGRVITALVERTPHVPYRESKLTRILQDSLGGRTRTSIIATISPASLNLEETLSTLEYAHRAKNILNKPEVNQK
# procedure details: microtubule-activated Eg5 motor protein ATPase assay (malachite green, OD630)
# reported conditions: microtubule-stimulated KSP ATPase activity
By convention, pIC50 is the negative base-10 log of a molar concentration.

Exercise: Tell me its pIC50 given CCOC(=O)c1[nH]c(C2NC(=S)NC(C)=C2C(=O)OC)c(C(=O)OCC)c1C (centres unmarked) as the entry.
Key: 4.24

Exercise: Provide measured pIC50 value, entry: CCOC(=O)c1[nH]c(C2NC(=O)NC(C)=C2C(=O)Nc2ccccc2OC)c(C(=O)OC)c1C (centres unmarked)
Key: 4.27

Exercise: Please list pIC50 recorded for the compound CCOc1ccccc1C1NC(=S)NC(C)=C1C(=O)Nc1ccc(Cl)cc1 (centres unmarked)
Key: 4.52

Exercise: Fill in reported pIC50 for this entry: CCOC(=O)c1[nH]c(C2NC(=O)NC(C)=C2C(=O)Nc2ccc(Cl)cc2)c(C(=O)OCC)c1C (centres unmarked)
Key: 4.20

Exercise: Using known records, supply pIC50 for CCOC(=O)c1[nH]c(C2NC(=O)NC(C)=C2C(=O)Nc2ccccc2C)c(C(=O)OC)c1C (centres unmarked)
Key: 4.15
